Where do the numbers come from? From patent US20130109682A1.

Catalogue of compounds with associated IC50
# Assayed system: PIM3 (Homo sapiens, UniProt Q86V86)
# Experimental protocol: Pim 3 AlphaScreen assay (high ATP)
# Assay type: biochemical
# Protocol conditions: read-out: Pim3 IC50
Quick note: give the figure in nM, leave out the unit.

Guide cases for IC50, answers given:
INSERT INTO assay_data (smiles_entry, numeric_result) VALUES
  ('C[C@@]1(O)[C@@H](O)C[C@@H](c2ccncc2NC(=O)c2ccc(F)c(-c3c(F)cccc3F)n2)O[C@H]1C1CC1', 2270),
  ('C[C@]1(O)[C@H](N)C[C@H](c2ccncc2NC(=O)c2nc(-c3c(F)cccc3F)ncc2N)O[C@@H]1C1CC1', 18.1),
  ('C[C@@H]1O[C@H](c2ccncc2NC(=O)c2csc(-c3c(F)cccc3F)n2)C[C@H](N)[C@@]1(C)O', 189);

Now turn to the next compound.
Look up IC50 for this compound: CC[C@]1(O)[C@H](N)C[C@H](c2ccncc2NC(=O)c2nc(-c3c(F)cccc3F)ncc2N)O[C@@H]1C
8.4

###

# Assayed system: PIM3 (Homo sapiens)
# Experimental protocol: Pim 3 AlphaScreen assay (high ATP)
# Assay type: biochemical
# Protocol conditions: read-out: Pim3 IC50
# Experimental: Pim1, Pim2, Pim3 AlphaScreen Assay Pim 1, Pim 2 & Pim 3 AlphaScreen assays using high ATP (11-125×ATP Km) were used to determine the biochemical activity of the inhibitors. The activity of Pim 1, Pim 2, & Pim 3 is measured using a homogeneous bead based system quantifying the amount of phosphorylated peptide substrate resulting from kinase-catalyzed phosphoryl transfer to a peptide substrate. […]
Result type: pIC50
Please treat pIC50 as minus the base-10 logarithm of the molar concentration.

Would you please look over these solved cases?
INSERT INTO measurements (compound, numeric_result) VALUES
  ('N[C@H]1C[C@@H](c2ccncc2NC(=O)c2csc(-c3c(F)cccc3F)n2)O[C@H]2CCC[C@H]21', 6.32),
  ('Cc1cc(F)c(-c2nc(C(=O)Nc3cnccc3[C@H]3C[C@@H](N)[C@H](O)[C@@H](C4CC4)O3)ccc2F)c(F)c1', 8.05),
  ('CS(=O)(=O)c1cc(F)c(-c2nc(C(=O)Nc3cnccc3[C@@H]3C[C@H](N)[C@@H](O)[C@H](C4CC4)O3)ccc2F)c(F)c1', 5.71);

Sample CC[C@H]1O[C@@H](c2ccncc2NC(=O)c2ccc(F)c(-c3c(F)cccc3F)n2)C[C@@H](N)[C@]1(C)O (stereo in doubt) — what was its pIC50?
7.28

Name the recorded pIC50 for C[C@@]1(O)[C@@H](N)C[C@@H](c2ccncc2NC(=O)c2ccc(F)c(-c3c(F)cccc3F)n2)OC12CC2 .
7.56

###

# Assayed system: hERG (Homo sapiens, UniProt Q12809)
# Construct: host or cells: crude membrane suspension
# Sequence (Q12809 whole entry): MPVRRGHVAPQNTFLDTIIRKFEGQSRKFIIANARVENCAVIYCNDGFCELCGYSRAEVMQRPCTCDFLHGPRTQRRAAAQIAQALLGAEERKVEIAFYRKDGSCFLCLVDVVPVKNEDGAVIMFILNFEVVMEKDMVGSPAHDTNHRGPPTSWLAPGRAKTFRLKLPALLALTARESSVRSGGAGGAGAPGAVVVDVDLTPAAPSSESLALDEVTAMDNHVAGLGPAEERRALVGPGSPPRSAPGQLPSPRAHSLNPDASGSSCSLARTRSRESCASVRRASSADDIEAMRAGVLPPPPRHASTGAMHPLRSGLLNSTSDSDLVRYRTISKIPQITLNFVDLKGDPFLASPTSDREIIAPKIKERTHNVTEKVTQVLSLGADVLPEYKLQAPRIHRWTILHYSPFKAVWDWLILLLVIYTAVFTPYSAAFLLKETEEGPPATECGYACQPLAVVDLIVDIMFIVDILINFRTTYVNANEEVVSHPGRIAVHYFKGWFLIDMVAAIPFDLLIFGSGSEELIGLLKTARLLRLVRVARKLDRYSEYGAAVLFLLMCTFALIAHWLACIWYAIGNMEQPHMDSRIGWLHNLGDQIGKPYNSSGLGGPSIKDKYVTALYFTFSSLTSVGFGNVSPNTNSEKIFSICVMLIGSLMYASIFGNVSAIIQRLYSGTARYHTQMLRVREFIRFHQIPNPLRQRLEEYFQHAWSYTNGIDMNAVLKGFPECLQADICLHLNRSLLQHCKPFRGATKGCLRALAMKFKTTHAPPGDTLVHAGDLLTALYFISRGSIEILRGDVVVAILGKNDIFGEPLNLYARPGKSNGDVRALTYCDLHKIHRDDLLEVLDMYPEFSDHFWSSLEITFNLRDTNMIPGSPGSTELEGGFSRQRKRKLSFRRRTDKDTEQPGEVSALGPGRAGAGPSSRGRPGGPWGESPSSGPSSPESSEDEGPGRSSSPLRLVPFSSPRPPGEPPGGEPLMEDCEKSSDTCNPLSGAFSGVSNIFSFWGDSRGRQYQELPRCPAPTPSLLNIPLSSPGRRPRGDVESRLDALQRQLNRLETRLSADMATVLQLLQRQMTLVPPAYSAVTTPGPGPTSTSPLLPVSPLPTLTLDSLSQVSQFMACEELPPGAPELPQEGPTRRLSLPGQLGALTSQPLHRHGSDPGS
# Experimental protocol: hERG binding assay ([3H] dofetilide displacement)
# Protocol conditions: dofetilide displacement; read-out: HERGdof IC50
# IC50 per record follows

Entry N[C@@H]1C[C@H](c2ccncc2NC(=O)c2ccc(F)c(-c3c(F)cccc3F)n2)O[C@@H]2CCC[C@]12O [Example 210] : reported IC50 = ?
10 µM

Need IC50, item Nc1ncc(-c2ccccc2)nc1C(=O)Nc1cnccc1[C@H]1C[C@@H](O)[C@@]2(O)CCCC[C@H]2O1 [Example 173]
> 30 µM

Could you share which IC50 value was measured for C[C@@H]1O[C@H](c2ccncc2NC(=O)c2nc(-c3ccccc3)cnc2N)[C@@H](F)[C@H](O)[C@@]1(C)O [Example 63] ?
> 30 µM

Fill in: IC50 of CC[C@]1(O)[C@H](O)C[C@H](c2ccncc2NC(=O)c2nc(-c3c(F)cccc3F)ncc2N)O[C@@H]1C [Example 16] is ___
> 30 µM

###

# Assayed system: PIM3 (Homo sapiens)
# Experimental protocol: KinaseGlo Pim3 ATP depletion assay
# Format: biochemical
Result type: IC50 (nM)
Report as a plain number; the unit nM is understood.

Completed entries (count: 6):
INSERT INTO measurements (compound, result_type, numeric_result) VALUES
  ('C=C1[C@@H](O)C[C@@H](c2ccncc2NC(=O)c2nc(-c3ccccc3)cnc2N)OC12CC2 [Example 5]', 'IC50', 37.3),
  ('C[C@H]1C[C@@H](N)C[C@@H](c2ccncc2NC(=O)c2ccc(F)c(-c3c(F)cccc3F)n2)O1 [Example 124]', 'IC50', 2),
  ('O=C(Nc1cnccc1C1=C[C@@H](O)[C@H](O)[C@@H](CCl)O1)c1ccc(F)c(-c2c(F)cccc2F)n1 [Example 31]', 'IC50', 1),
  ('CC[C@]1(O)[C@H](O)C[C@H](c2ccncc2NC(=O)c2nc(-c3cnn(C)c3C)ccc2N)O[C@@H]1C [Example 156]', 'IC50', 42.4),
  ('O=C(Nc1cnccc1[C@@H]1C[C@H](O)[C@@H](O)[C@H](C2CC2)O1)c1ccc(F)c(-c2c(F)cccc2F)n1 [Example 209]', 'IC50', 4.2),
  ('N#CC[C@H]1O[C@@H](c2ccncc2NC(=O)c2nc(-c3c(F)cccc3F)ncc2N)C[C@@H](O)[C@@H]1O [Example 138]', 'IC50', 14);

// query IC50 value for entry O=C(Nc1cnccc1C1OCCCO1)c1ccc(F)c(-c2c(F)cccc2F)n1 [Example 118]
17

###

# Assayed system: PIM1 (Homo sapiens, UniProt P11309)
# Sequence (P11309 whole entry): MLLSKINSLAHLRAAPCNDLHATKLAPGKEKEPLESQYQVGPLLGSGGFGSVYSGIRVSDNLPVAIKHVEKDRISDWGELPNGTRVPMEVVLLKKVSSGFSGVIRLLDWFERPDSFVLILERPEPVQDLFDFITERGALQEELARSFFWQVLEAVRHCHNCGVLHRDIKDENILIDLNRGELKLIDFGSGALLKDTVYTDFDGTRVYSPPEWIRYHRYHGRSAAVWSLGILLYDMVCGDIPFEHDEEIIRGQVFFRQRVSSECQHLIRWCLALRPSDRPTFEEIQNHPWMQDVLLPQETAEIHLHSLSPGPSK
# Experimental protocol: Pim 1 AlphaScreen assay (high ATP)
# Format: biochemical
# Protocol conditions: read-out: Pim1 IC50
Result type: IC50
Don't forget the unit after the value.

INSERT INTO assay_data (compound, result) VALUES
  ('N[C@@H]1C[C@H](c2ccncc2NC(=O)c2csc(-c3c(F)cccc3F)n2)O[C@@H]2CCC[C@H]12', '0.24 nM'),
  ('CC(C)C1OC(c2ccncc2NC(=O)c2ccc(F)c(-c3c(F)cccc3F)n2)C[C@H](N)[C@H]1O (stereo in doubt)', '4.7 nM'),
  ('CS(=O)(=O)c1cc(F)c(-c2nc(C(=O)Nc3cnccc3[C@@H]3C[C@H](N)[C@@H](O)[C@H](C4CC4)O3)ccc2F)c(F)c1', '27.5 nM');

Query: IC50; subject: N[C@@H]1C[C@H](c2ccncc2NC(=O)c2ccc(F)c(-c3c(F)cccc3F)n2)O[C@@H]2CCC[C@H]12
0.1 nM

Given C[C@@]1(O)[C@@H](N)C[C@@H](c2ccncc2NC(=O)c2ccc(F)c(-c3c(F)cccc3F)n2)OC12CC2 , state its recorded IC50.
1.98 nM

IC50 for Cc1cc(F)c(-c2nc(C(=O)Nc3cnccc3[C@@H]3C[C@@H](N)CC(C)(C)O3)ccc2F)c(F)c1 ?
0.06 nM

Given the entry C[C@]1(O)[C@H](N)C[C@H](c2ccncc2NC(=O)c2ccc(F)c(-c3c(F)cccc3F)n2)O[C@@H]1C1CC1 , report its measured IC50.
0.17 nM

Item under review: N[C@H]1C[C@@H](c2ccncc2NC(=O)c2ccc(F)c(-c3c(F)cccc3F)n2)O[C@H]2CCC[C@H]21 . Reported IC50?
4.62 nM

###

# Assayed system: PIM2 (Homo sapiens)
# Sequence (Q9P1W9 whole entry): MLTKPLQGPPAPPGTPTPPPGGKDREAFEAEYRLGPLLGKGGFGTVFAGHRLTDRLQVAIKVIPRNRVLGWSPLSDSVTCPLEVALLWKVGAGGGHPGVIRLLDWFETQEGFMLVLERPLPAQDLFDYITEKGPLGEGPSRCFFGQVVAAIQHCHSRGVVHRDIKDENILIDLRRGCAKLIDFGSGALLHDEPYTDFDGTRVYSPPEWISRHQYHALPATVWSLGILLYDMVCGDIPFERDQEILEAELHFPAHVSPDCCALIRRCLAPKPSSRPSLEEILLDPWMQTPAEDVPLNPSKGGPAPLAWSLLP
# Experimental protocol: Pim 2 AlphaScreen assay (high ATP)
# Assay type: biochemical
# Protocol conditions: read-out: Pim2 IC50
# reported IC50; entries follow
Use nM as the unit, but write only the number.

INSERT INTO measurements (molecule, output_unit, numeric_result) VALUES
  ('CC[C@H]1O[C@@H](c2ccncc2NC(=O)c2ccc(F)c(-c3c(F)cccc3F)n2)C[C@@H](N)[C@]1(C)O (stereo in doubt) [Example 275]', 'nM', 234),
  ('CC(C)(C)[C@H]1O[C@@H](c2ccncc2NC(=O)c2nc(-c3c(F)cccc3F)ncc2N)C[C@@H](N)[C@@H]1O [Example 260]', 'nM', 6),
  ('COc1cc(F)c(-c2nc(C(=O)Nc3cnccc3[C@H]3C[C@@H](N)[C@](C)(O)[C@@H](C4CC4)O3)ccc2F)c(F)c1 [Example 265]', 'nM', 9.6),
  ('O=C(Nc1cnccc1[C@H]1C[C@@H](O)[C@H](O)C2(CC2)O1)c1ccc(F)c(-c2c(F)cccc2F)n1 [Example 253]', 'nM', 79.5),
  ('CC(C)[C@H]1C[C@@H](N)C[C@@H](c2ccncc2NC(=O)c2nc(-c3ccccc3)cnc2N)O1 [Example 292]', 'nM', 764);

Please find the next molecule below.
Fill in: IC50 of C[C@]1(O)[C@H](N)C[C@H](c2ccncc2NC(=O)c2nc(-c3c(F)cccc3F)ncc2N)O[C@@H]1C1CC1 [Example 262] is ___
18.2

###

# Assayed system: PIM3 (Homo sapiens, UniProt Q86V86)
# Experimental protocol: Pim 3 AlphaScreen assay (high ATP)
# Format: biochemical
# Protocol conditions: read-out: Pim3 IC50
Below is a list of entries, each paired with its recorded IC50 value.
Hi! Could you send only the number? It should be in nM, unit omitted.

INSERT INTO measurements (molecule, numeric_result) VALUES
  ('CC(C)[C@H]1O[C@@H](c2ccncc2NC(=O)c2nc(-c3c(F)cccc3F)ncc2N)C[C@@H](N)[C@@H]1O', 9),
  ('CC(C)C1OC(c2ccncc2NC(=O)c2nc(-c3c(F)cccc3F)ncc2N)C[C@H](N)[C@H]1O (stereo in doubt)', 512);

# get_value(readout='IC50', item= CC(C)(C)[C@H]1O[C@@H](c2ccncc2NC(=O)c2ccc(F)c(-c3c(F)cccc3F)n2)C[C@@H](N)[C@@H]1O )
0.4

Which IC50 is listed for O=C(Nc1cnccc1[C@@H]1C[C@H](O)[C@@H](O)C2(CC2)O1)c1ccc(F)c(-c2c(F)cccc2F)n1 ?
499

Data request, read-out IC50, for CC1(C)C[C@H](N)C[C@@H](c2ccncc2NC(=O)c2ccc(F)c(-c3c(F)cc(OCCO)cc3F)n2)O1
1.1

# get_value(readout='IC50', item= CC(C)[C@H]1OC(c2ccncc2NC(=O)c2ccc(F)c(-c3c(F)cc(OCCO)cc3F)n2)C[C@@H](N)[C@@H]1O (stereo in doubt) )
1.8

# get_value(readout='IC50', item= C[C@@]1(O)[C@@H](N)C[C@@H](c2ccncc2NC(=O)c2ccc(F)c(-c3c(F)cccc3F)n2)O[C@H]1C1CC1 )
35.9

Give its IC50 value. Item: CC(C)[C@H]1OC(c2ccncc2NC(=O)c2ccc(F)c(-c3c(F)ccc(C(=O)N(C)C)c3F)n2)C[C@@H](N)[C@@H]1O (stereo in doubt)
9.6

Which IC50 value is on record for C[C@]1(O)[C@H](N)C[C@H](c2ccncc2NC(=O)c2ccc(F)c(-c3c(F)cccc3F)n2)OC12CC2 [Example 267] ?
29.7

For the molecule CC[C@H]1O[C@@H](c2ccncc2NC(=O)c2ccc(F)c(-c3c(F)cccc3F)n2)C[C@@H](N)[C@@H]1O , what IC50 is on record?
6

// returns reported IC50 for input Nc1cnc(-c2c(F)cccc2F)nc1C(=O)Nc1cnccc1[C@@H]1C[C@H](O)[C@@H](O)C2(CC2)O1
1320
